System: DMS-114 complex spheroids with HUVEC/MSC, growth % test/control
assay: Anticancer human tumor DMS-114 cell line growth inhibition [AhR];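 further: spheroids exposed to agents for 7 days before readout; 100% = DMSO vehicle control wells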
condition_description: second compound 1 µM; first compound 0.00316 µM; stronger effect = lower value
measured_metric: viability, T/C (%)
Record the value in %, omitting the unit from your answer.

(Q) Recorded viability, T/C for CC1COCCN1c1cc(-c2ccnn2C)c2ccnc(-c3ccn[nH]3)c2n1 (stereo unspecified) + Cc1ccccc1N=Nc1ccc(NC(=O)c2ccnn2C)c(C)c1 , please?
(A) 97.8

(Q) Recorded viability, T/C for CC[C@@]1(O)C(=O)OCc2c1cc1n(c2=O)Cc2cc3c(CN(C)C)c(O)ccc3nc2-1 + Cc1cncc(-c2nc(NCCc3c[nH]c4ccccc34)c3ncn(C(C)C)c3n2)c1 , please?
(A) 94.5

(Q) Recorded viability, T/C for CC1COCCN1c1cc(-c2ccnn2C)c2ccnc(-c3ccn[nH]3)c2n1 (stereo unspecified) + CC(CO)NC(=O)c1cc(-c2ccc(Cl)cc2)nn(-c2cnn(C)c2)c1=O , please?
(A) 85.3

(Q) Recorded viability, T/C for Cn1ncnc1C1c2n[nH]c(=O)c3cc(F)cc(c23)NC1c1ccc(F)cc1 (stereo unspecified) + CC(CO)NC(=O)c1cc(-c2ccc(Cl)cc2)nn(-c2cnn(C)c2)c1=O , please?
(A) 109

(Q) Recorded viability, T/C for Cn1ncnc1C1c2n[nH]c(=O)c3cc(F)cc(c23)NC1c1ccc(F)cc1 (stereo unspecified) + Cc1ccccc1N=Nc1ccc(NC(=O)c2ccnn2C)c(C)c1 , please?
(A) 108

(Q) Recorded viability, T/C for Cn1ncnc1C1c2n[nH]c(=O)c3cc(F)cc(c23)NC1c1ccc(F)cc1 (stereo unspecified) + Cc1cncc(-c2nc(NCCc3c[nH]c4ccccc34)c3ncn(C(C)C)c3n2)c1 , please?
(A) 96.8

###

Would you kindly list viability, T/C for each of these compounds?
Test system: DMS-114 complex spheroids with HUVEC/MSC, growth % test/control
assay: Anticancer human tumor DMS-114 cell line growth inhibition [AhR];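 further: spheroids exposed to agents for 7 days before readout; 100% = DMSO vehicle control wells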
condition_description: second compound 1 µM; first compound 0.00316 µM; stronger effect = lower value
Excerpt: Multicellular complex tumor spheroid response to aryl hydrocarbon receptor antagonists in combination with a variety of drugs and investigational agents in selected tumor cell lines […] Compounds. […] If the clinical Cmax for an agent had not been determined, the highest concentration tested was 10 microM (Table 1). […]
Record the value in %, omitting the unit from your answer.

(Q) Recorded viability, T/C for CC[C@@]1(O)C(=O)OCc2c1cc1n(c2=O)Cc2cc3c(CN(C)C)c(O)ccc3nc2-1 + CC(CO)NC(=O)c1cc(-c2ccc(Cl)cc2)nn(-c2cnn(C)c2)c1=O , please?
(A) 90

(Q) Recorded viability, T/C for Nc1ncn(C2CC(O)C(CO)O2)c(=O)n1 (stereo unspecified) + CC(CO)NC(=O)c1cc(-c2ccc(Cl)cc2)nn(-c2cnn(C)c2)c1=O , please?
(A) 91.3

(Q) Recorded viability, T/C for CC[C@@]1(O)C(=O)OCc2c1cc1n(c2=O)Cc2cc3c(CN(C)C)c(O)ccc3nc2-1 + Cc1ccccc1N=Nc1ccc(NC(=O)c2ccnn2C)c(C)c1 , please?
(A) 99.6

(Q) Recorded viability, T/C for CC1COCCN1c1cc(-c2ccnn2C)c2ccnc(-c3ccn[nH]3)c2n1 (stereo unspecified) + Cc1cncc(-c2nc(NCCc3c[nH]c4ccccc34)c3ncn(C(C)C)c3n2)c1 , please?
(A) 87.5

(Q) Recorded viability, T/C for Nc1ncn(C2CC(O)C(CO)O2)c(=O)n1 (stereo unspecified) + Cc1ccccc1N=Nc1ccc(NC(=O)c2ccnn2C)c(C)c1 , please?
(A) 109

(Q) Recorded viability, T/C for Nc1ncn(C2CC(O)C(CO)O2)c(=O)n1 (stereo unspecified) + Cc1cncc(-c2nc(NCCc3c[nH]c4ccccc34)c3ncn(C(C)C)c3n2)c1 , please?
(A) 97.8

###

Would you kindly list viability, T/C for each of these compounds?
Tested on: DMS-114 complex spheroids with HUVEC/MSC, growth % test/control
assay: Anticancer human tumor DMS-114 cell line growth inhibition [AhR];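 further: spheroids exposed to agents for 7 days before readout; 100% = DMSO vehicle control wells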
condition_description: second compound 0.316 µM; first compound 0.0316 µM; stronger effect = lower value

(Q) Recorded viability, T/C for CC(C)c1c(-c2ccccc2)nc2c(C#N)c[nH]n2c1=O + Cc1cncc(-c2nc(NCCc3c[nH]c4ccccc34)c3ncn(C(C)C)c3n2)c1 , please?
(A) 107%

(Q) Recorded viability, T/C for COc1ccc([C@@H](O)c2cc(-c3ncnc4cc(N5CCOCC5)ccc34)c(F)cc2Cl)nn1 + Cc1ccccc1N=Nc1ccc(NC(=O)c2ccnn2C)c(C)c1 , please?
(A) 98.1%

(Q) Recorded viability, T/C for Cn1ncnc1C1c2n[nH]c(=O)c3cc(F)cc(c23)NC1c1ccc(F)cc1 (stereo not drawn) + CC(CO)NC(=O)c1cc(-c2ccc(Cl)cc2)nn(-c2cnn(C)c2)c1=O , please?
(A) 82%

###

Tested on: DMS-114 complex spheroids with HUVEC/MSC, growth % test/control
assay: Anticancer human tumor DMS-114 cell line growth inhibition [AhR];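 further: spheroids exposed to agents for 7 days before readout; 100% = DMSO vehicle control wells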
condition_description: second compound 0.316 µM; first compound 0.03 µM; stronger effect = lower value
Would you kindly list viability, T/C for each of these molecules?
Record the value in %, omitting the unit from your answer.

(Q) Recorded viability, T/C for O=C(C=Cn1cnc(-c2cc(C(F)(F)F)cc(C(F)(F)F)c2)n1)NNc1cnccn1 + CC(CO)NC(=O)c1cc(-c2ccc(Cl)cc2)nn(-c2cnn(C)c2)c1=O , please?
(A) 93.9

(Q) Recorded viability, T/C for O=C(C=Cn1cnc(-c2cc(C(F)(F)F)cc(C(F)(F)F)c2)n1)NNc1cnccn1 + Cc1ccccc1N=Nc1ccc(NC(=O)c2ccnn2C)c(C)c1 , please?
(A) 125

(Q) Recorded viability, T/C for CCN(c1cc(-c2ccc(CN3CCOCC3)cc2)cc(C(=O)NCc2c(C)cc(C)[nH]c2=O)c1C)C1CCOCC1 + Cc1ccccc1N=Nc1ccc(NC(=O)c2ccnn2C)c(C)c1 , please?
(A) 101

(Q) Recorded viability, T/C for CC(C)CC(NC(=O)C(Cc1ccccc1)NC(=O)c1cnccn1)B(O)O (stereo not given) + CC(CO)NC(=O)c1cc(-c2ccc(Cl)cc2)nn(-c2cnn(C)c2)c1=O , please?
(A) 0.05

(Q) Recorded viability, T/C for Nc1ncn(C2CC(O)C(CO)S2)c(=O)n1 (stereo not given) + Cc1cncc(-c2nc(NCCc3c[nH]c4ccccc34)c3ncn(C(C)C)c3n2)c1 , please?
(A) 84

(Q) Recorded viability, T/C for CCN(c1cc(-c2ccc(CN3CCOCC3)cc2)cc(C(=O)NCc2c(C)cc(C)[nH]c2=O)c1C)C1CCOCC1 + Cc1cncc(-c2nc(NCCc3c[nH]c4ccccc34)c3ncn(C(C)C)c3n2)c1 , please?
(A) 89.3

(Q) Recorded viability, T/C for Nc1ncn(C2CC(O)C(CO)S2)c(=O)n1 (stereo not given) + CC(CO)NC(=O)c1cc(-c2ccc(Cl)cc2)nn(-c2cnn(C)c2)c1=O , please?
(A) 89.5

(Q) Recorded viability, T/C for CCc1c2c(nc3ccc(O)cc13)-c1cc3c(c(=O)n1C2)COC(=O)[C@]3(O)CC + CC(CO)NC(=O)c1cc(-c2ccc(Cl)cc2)nn(-c2cnn(C)c2)c1=O , please?
(A) 15.8

(Q) Recorded viability, T/C for CC(C)CC(NC(=O)C(Cc1ccccc1)NC(=O)c1cnccn1)B(O)O (stereo not given) + Cc1ccccc1N=Nc1ccc(NC(=O)c2ccnn2C)c(C)c1 , please?
(A) 0.18

(Q) Recorded viability, T/C for Nc1ncn(C2CC(O)C(CO)S2)c(=O)n1 (stereo not given) + Cc1ccccc1N=Nc1ccc(NC(=O)c2ccnn2C)c(C)c1 , please?
(A) 105

(Q) Recorded viability, T/C for CC(C)CC(NC(=O)C(Cc1ccccc1)NC(=O)c1cnccn1)B(O)O (stereo not given) + Cc1cncc(-c2nc(NCCc3c[nH]c4ccccc34)c3ncn(C(C)C)c3n2)c1 , please?
(A) 0.04

(Q) Recorded viability, T/C for CCc1c2c(nc3ccc(O)cc13)-c1cc3c(c(=O)n1C2)COC(=O)[C@]3(O)CC + Cc1cncc(-c2nc(NCCc3c[nH]c4ccccc34)c3ncn(C(C)C)c3n2)c1 , please?
(A) 14.5

(Q) Recorded viability, T/C for CCc1c2c(nc3ccc(O)cc13)-c1cc3c(c(=O)n1C2)COC(=O)[C@]3(O)CC + Cc1ccccc1N=Nc1ccc(NC(=O)c2ccnn2C)c(C)c1 , please?
(A) 30.5

(Q) Recorded viability, T/C for CCN(c1cc(-c2ccc(CN3CCOCC3)cc2)cc(C(=O)NCc2c(C)cc(C)[nH]c2=O)c1C)C1CCOCC1 + CC(CO)NC(=O)c1cc(-c2ccc(Cl)cc2)nn(-c2cnn(C)c2)c1=O , please?
(A) 107

(Q) Recorded viability, T/C for O=C(C=Cn1cnc(-c2cc(C(F)(F)F)cc(C(F)(F)F)c2)n1)NNc1cnccn1 + Cc1cncc(-c2nc(NCCc3c[nH]c4ccccc34)c3ncn(C(C)C)c3n2)c1 , please?
(A) 99.8
